# fraction unbound annotations
Test: in vitro
Settings: mouse
Form: value (number only, do not type unit).

C[C@]12CC3CC(C(=O)N[C@H]4CC[C@@H](N)CC4)(C1)C[C@@](c1ccccc1)(C3)C2.Cl: 0.011

Prompt line: Give its fraction unbound value. Item: CC12CC3CC(C(=O)N[C@H]4CC[C@@H](N)CC4)(C1)CC(c1ccccc1)(C3)C2.Cl (mixture of isomers)
Response line: 0.014

* * *

System: SUDV (glycoprotein, VSV pseudotype)
Experiment: microbe, parasite or virus in culture
Format: cell-based, Sudan ebolavirus
Details: Vesicular stomatitis virus, Vero, 24 h, read-out: EC50 Pseudotype Assays SUDV
# EC50 annotations
Could you write the number and then its unit?

Worked examples follow.
C[C@@]12CC3CC(C(=O)NC4CCNCC4)(C1)C[C@](c1ccccc1)(C3)C2 [Example C1]: 685 nM
CC12CC3CC(C(=O)N4C[C@H]5CNC[C@H]5C4)(C1)CC(c1ccccc1)(C3)C2 (mixture of isomers) [Example A45]: 330 nM
CC12CC3CC(C(=O)N[C@H]4CN5CCC4CC5)(C1)CC(c1ccccc1)(C3)C2 (mixture of isomers) [Example A58]: 383 nM

# evaluate next
Prompt line: Give its EC50 value. Item: CC12CC3CC(C(=O)N4CC[C@H](N)C4)(C1)CC(c1ccccc1)(C3)C2 (mixture of isomers) [Example A54]
Response line: 350 nM
